- ASSAY PROCEDURE: Storage stability of FlucmRNA-loaded LNP at −80, 5, 25 and 40° C.
- Type: physicochemical
- CONDITION SUMMARY: maximum storage period 5 weeks
ENDPOINT: period for which quality remained good, 5° C. (weeks)

1) CCCCCCCCCCC(CCCCCCCCCC)C(=O)OCCCCCCC(O)(CCCCCCOC(=O)C(CCCCCCCCCC)CCCCCCCCCC)CCCCN(CCC)CCC ... 5
2) CCCCCCCCCC(CCCCCC)C(=O)OCCCCCCC(O)(CCCCCCOC(=O)C(CCCCCC)CCCCCCCCC)CCCCOC(=O)C1CCN(C)CC1 (stereo not drawn) [CL15F 11-6] ... 5
3) CCCCCCC(CCCC)C(=O)OCCCCCCC(O)(CCCCCCOC(=O)C(CCCC)CCCCCC)CCCCN(CCC)CCC (stereo not drawn) ... 5
4) CCCCCCCCCCC(CCCCCC)C(=O)OCCCCCCC(O)(CCCCCCOC(=O)C(CCCCCC)CCCCCCCCCC)CCCCN(CCC)CCC (stereo not drawn) ... 5
5) CCCCCCCC(CCCCCCC)C(=O)OCCCCCCC(O)(CCCCCCOC(=O)C(CCCCCCC)CCCCCCC)CCCCN(CCC)CCC ... 5
6) CCCCCC(CCCCC)C(=O)OCCCCCCC(O)(CCCCCCOC(=O)C(CCCCC)CCCCC)CCCCOC(=O)C1CCN(C)CC1 [CL15F 7-5] ... 5

====

- ASSAY PROCEDURE: Average particle size and PDI by dynamic light scattering (Zetasizer Nano ZS)
- Format: physicochemical
- CONDITION SUMMARY: pFluc-loaded LNP, 50:10:40:1.5, N/P ratio 6
ENDPOINT: ζ-Average (nm)

1) CCCCCCCCC(CCCCCC)C(=O)OCCCCCCC(O)(CCCCCCOC(=O)C(CCCCCC)CCCCCCCC)CCCCOC(=O)C1CCN(C)CC1 (stereo not drawn) ... 109.4
2) CCCN(CCC)CCCCC(O)(CCCCCCOC(=O)C(CCC(C)CC(C)(C)C)C(C)CC(C)(C)C)CCCCCCOC(=O)C(CCC(C)CC(C)(C)C)C(C)CC(C)(C)C (stereo not drawn) ... 74.48
3) CCCCCCCC/C=C\CCCCCCCC(=O)OCCCCCCC(O)(CCCCCCOC(=O)CCCCCCC/C=C\CCCCCCCC)CCCCOC(=O)C1CCN(C)CC1 [CL15H6, reference compound] ... 121.7
4) CC(CCC(C(=O)OCCCCCCC(O)(CCCCCCOC(=O)C(CCC(C)CC(C)(C)C)C(C)CC(C)(C)C)CCCCOC(=O)C1CCN(C)CC1)C(C)CC(C)(C)C)CC(C)(C)C (stereo not drawn) ... 86.39
5) CCCCCCCCC(CCCCCC)C(=O)OCCCCCCC(O)(CCCCCCOC(=O)C(CCCCCC)CCCCCCCC)CCCCN(CCC)CCC (stereo not drawn) ... 79.91
6) CCCCCCCC/C=C\CCCCCCCC(=O)OCCCCCCC(O)(CCCCCCOC(=O)CCCCCCC/C=C\CCCCCCCC)CCCCN(CCC)CCC [CL4H6, reference compound] ... 105.6

====

- ASSAY PROCEDURE: Storage stability of FlucmRNA-loaded LNP at −80, 5, 25 and 40° C.
- Format: physicochemical
- CONDITION SUMMARY: maximum storage period 5 weeks
ENDPOINT: period for which quality remained good, 5° C. (weeks)

Use these answered entries as a reference point.
1) CCCCCCC(CCCCC)C(=O)OCCCCCCC(O)(CCCCCCOC(=O)C(CCCCC)CCCCCC)CCCCN(CCC)CCC (stereo not drawn) ... 5
2) CCCCCCCCCCCC(CCC)C(=O)OCCCCCCC(O)(CCCCCCOC(=O)C(CCC)CCCCCCCCCCC)CCCCOC(=O)C1CCN(C)CC1 (stereo not drawn) [CL15F 13-3] ... 5
3) CCCCCCCCCC(CCCCCCC)C(=O)OCCCCCCC(O)(CCCCCCOC(=O)C(CCCCCCC)CCCCCCCCC)CCCCOC(=O)C1CCN(C)CC1 (stereo not drawn) [CL15F 11-7] ... 5

a: CCCCCCCCCC(CCCCCC)C(=O)OCCCCCCC(O)(CCCCCCOC(=O)C(CCCCCC)CCCCCCCCC)CCCCN(CCC)CCC (stereo not drawn)
b: CCCCCC(CCCCC)C(=O)OCCCCCCC(O)(CCCCCCOC(=O)C(CCCCC)CCCCC)CCCCN(CCC)CCC
Prompt: API: POST /compare with a and b ; response names the item with higher period for which quality remained good, 5° C.. Pick one and reply with its label.
Response: a

====

- ASSAY PROCEDURE: Nucleic acid encapsulation rate by Ribogreen (section II)
- Assay type: physicochemical
- CONDITION SUMMARY: pFluc-loaded LNP, N/P ratio 9
ENDPOINT: % pDNA encapsulation (%)

1) CCCCCCCCC(CCCCCC)C(=O)OCCCCCCC(O)(CCCCCCOC(=O)C(CCCCCC)CCCCCCCC)CCCCOC(=O)C1CCN(C)CC1 (stereo not drawn) [CL15F6] ... 93.1
2) CCCCCCCCC(CCCCCC)C(=O)OCCCCCCC(O)(CCCCCCOC(=O)C(CCCCCC)CCCCCCCC)CCCCN(CCC)CCC (stereo not drawn) [CL4F6] ... 94.8

====

- ASSAY PROCEDURE: Storage stability of FlucmRNA-loaded LNP at −80, 5, 25 and 40° C.
- Format: physicochemical
- CONDITION SUMMARY: maximum storage period 1 week
ENDPOINT: period for which quality remained good, −80° C. (week)

1. CCCCCCCCC(CCCCCCCC)C(=O)OCCCCCCC(O)(CCCCCCOC(=O)C(CCCCCCCC)CCCCCCCC)CCCCOC(=O)C1CCN(C)CC1 [CL15F 10-8] ... 1
2. CCCCCCC(CCCCCC)C(=O)OCCCCCCC(O)(CCCCCCOC(=O)C(CCCCCC)CCCCCC)CCCCN(CCC)CCC ... 1
3. CCCCCCCCCCCCC(CC)C(=O)OCCCCCCC(O)(CCCCCCOC(=O)C(CC)CCCCCCCCCCCC)CCCCOC(=O)C1CCN(C)CC1 (stereo not drawn) [CL15F 14-2] ... 1

A: CCCCCCCC/C=C\CCCCCCCC(=O)OCCCCCCC(O)(CCCCCCOC(=O)CCCCCCC/C=C\CCCCCCCC)CCCCN(CCC)CCC [CL4H6, reference compound]
B: CCCCCCCC(CCC)C(=O)OCCCCCCC(O)(CCCCCCOC(=O)C(CCC)CCCCCCC)CCCCN(CCC)CCC (stereo not drawn)
Prompt: Please compare: A and B . Report which one has the smaller period for which quality remained good, −80° C. value. Pick one and reply with its label.
Response: A
(A: 0 week, B: 1 week)

====

- ASSAY PROCEDURE: Average particle size and PDI by dynamic light scattering (Zetasizer Nano ZS)
- Assay type: physicochemical
- CONDITION SUMMARY: pFluc-loaded LNP, 50:10:40:1.5, N/P ratio 9
ENDPOINT: ζ-Average (nm)

Use these answered entries as a reference point.
1) CCCN(CCC)CCCCC(O)(CCCCCCOC(=O)C(CCC(C)CC(C)(C)C)C(C)CC(C)(C)C)CCCCCCOC(=O)C(CCC(C)CC(C)(C)C)C(C)CC(C)(C)C (stereo not drawn) ... 90.6
2) CCCCCCCC/C=C\CCCCCCCC(=O)OCCCCCCC(O)(CCCCCCOC(=O)CCCCCCC/C=C\CCCCCCCC)CCCCN(CCC)CCC [CL4H6, reference compound] ... 113.9
3) CC(CCC(C(=O)OCCCCCCC(O)(CCCCCCOC(=O)C(CCC(C)CC(C)(C)C)C(C)CC(C)(C)C)CCCCOC(=O)C1CCN(C)CC1)C(C)CC(C)(C)C)CC(C)(C)C (stereo not drawn) ... 100.9
4) CCCCCCCCC(CCCCCC)C(=O)OCCCCCCC(O)(CCCCCCOC(=O)C(CCCCCC)CCCCCCCC)CCCCOC(=O)C1CCN(C)CC1 (stereo not drawn) ... 105.7

A: CCCCCCCC/C=C\CCCCCCCC(=O)OCCCCCCC(O)(CCCCCCOC(=O)CCCCCCC/C=C\CCCCCCCC)CCCCOC(=O)C1CCN(C)CC1 [CL15H6, reference compound]
B: CCCCCCCCC(CCCCCC)C(=O)OCCCCCCC(O)(CCCCCCOC(=O)C(CCCCCC)CCCCCCCC)CCCCN(CCC)CCC (stereo not drawn)
Prompt: Please compare: A and B . Report which one has the smaller ζ-Average (nm) value. Pick one and reply with its label.
Response: B
(B: 91.3 nm, A: 149.9 nm)

====

- Tested on: liver
- ASSAY PROCEDURE: In vivo Fluc activity of FlucmRNA-loaded LNP by in vivo imaging, liver
- CONDITION SUMMARY: Balb/c mice, FlucmRNA-loaded LNP i.v. 0.1 mg mRNA/kg, 6 hours
The compounds listed here are annotated with their Fluc Activity in liver.
Answer with a number only, understood to be in Avg Radiance [p/s/cm2/sr].

Use these answered entries as a reference point.
1) CCCCCCCCCC(CCCCCC)C(=O)OCCCCCCC(O)(CCCCCCOC(=O)C(CCCCCC)CCCCCCCCC)CCCCOC(=O)C1CCN(C)CC1 (centres unmarked) [CL15F 11-6] ... 9.09E+06
2) CCCCCCCCC(CCCCCC)C(=O)OCCCCCCC(O)(CCCCCCOC(=O)C(CCCCCC)CCCCCCCC)CCCCOC(=O)C1CCN(C)CC1 (centres unmarked) ... 6.28E+06
3) CCCCCCCC(CCCCCC)C(=O)OCCCCCCC(O)(CCCCCCOC(=O)C(CCCCCC)CCCCCCC)CCCCN(CCC)CCC (centres unmarked) ... 9.61E+07
4) CCCCCCC(CCCCC)C(=O)OCCCCCCC(O)(CCCCCCOC(=O)C(CCCCC)CCCCCC)CCCCN(CCC)CCC (centres unmarked) ... 4.80E+07

Let us examine a further case.
Prompt: # get_value(readout='Fluc Activity in liver', item= CCCCCCCCCCCCCCC(C)C(=O)OCCCCCCC(O)(CCCCCCOC(=O)C(C)CCCCCCCCCCCCCC)CCCCN(CCC)CCC (centres unmarked) )
Response: 8.52E+06

All figures here come from patent US12458605B2.
